- Test system: Brain-Specific Receptors of Rats (3H-benzodiazepine binding)
- testSummary: Inhibition of the binding of 3H-benzodiazepine to brain-specific receptors of rats
- Design: species or system rat (male albino, Wistar strain)
- statedConditions: 3H-diazepam or 3H-flunitrazepam, rat cortex P2 fraction, pH 7.4, 30 min in ice; test concentration not given
Readings of % Inhibition for the listed compounds

Completed entries (count: 4):
compoundstructurestring=Cc1nn2c(-c3ccccc3)ccnc2c1C(=O)N=CN(C)C reportedvalue=18%
compoundstructurestring=Cc1cccc(-c2ccnc3c(C(=O)N=CN(C)C)cnn23)c1 reportedvalue=65%
compoundstructurestring=CN(C)C=NC(=O)c1cnn2c1NCC=C2c1cccc(C(F)(F)F)c1 reportedvalue=17%
compoundstructurestring=CN(C)C=NC(=O)c1cnn2c1NCC=C2c1cccnc1 reportedvalue=32%

### Prompt Form entry - test system: Brain-Specific Receptors of Rats (3H-benzodiazepine binding); read-out: % Inhibition; compound: CN(C)C=NC(=O)c1cnn2c(-c3cccc(C(F)(F)F)c3)ccnc12
### Response 82%

### Prompt Form entry - test system: Brain-Specific Receptors of Rats (3H-benzodiazepine binding); read-out: % Inhibition; compound: CN(C)C=NC(=O)c1cnn2c(-c3ccccc3)ccnc12
### Response 28%
